Entries and their measured pIC50 follow.
Molecular target: Recombinant human JAK3 catalytic domain (Homo sapiens)
Construct: Recombinant human JAK3 catalytic domain (amino acids 781-1124; catalog number PV3855); purchased Invitrogen PV3855
Assay: JAK3 inhibition assay
Type: biochemical
Conditions: Comparative Compounds (Table X)
pIC50: −log10 of the molar value.

CN(c1ccc2ncn(C)c2c1)c1ccc(C#N)cc1F [C, reference compound]	< 6.30

Recorded pIC50 (compound CN(c1cc2c(cn1)ncn2C)c1ccc(C#N)cc1F [D, reference compound] ): < 6.30

* * *

Reported values of IC50 for individual entries
Molecular target: Recombinant human JAK3 catalytic domain (Homo sapiens, UniProt P52333)
Construct: Recombinant human JAK3 catalytic domain (amino acids 781-1124; catalog number PV3855); purchased Invitrogen PV3855
Sequence (P52333 781-1124): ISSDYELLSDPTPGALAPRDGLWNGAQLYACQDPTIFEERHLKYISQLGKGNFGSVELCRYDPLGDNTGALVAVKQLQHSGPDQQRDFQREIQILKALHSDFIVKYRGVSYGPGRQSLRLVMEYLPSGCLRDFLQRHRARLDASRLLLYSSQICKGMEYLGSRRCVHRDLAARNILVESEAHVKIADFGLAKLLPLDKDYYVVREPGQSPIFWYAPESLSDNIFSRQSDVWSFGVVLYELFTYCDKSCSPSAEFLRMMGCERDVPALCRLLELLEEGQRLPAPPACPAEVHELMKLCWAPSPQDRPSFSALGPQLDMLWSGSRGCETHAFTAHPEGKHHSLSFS
Test: JAK3 inhibition assay
Type: biochemical
Conditions: Illustrative Compounds of the invention (Table IX)

Before answering, review these 3 worked examples.
Cc1cc(C(N)=O)ncc1Oc1cc(NC(=O)[C@H]2C[C@H]2F)c2ncn(C)c2c1	> 500 nM
CN(c1cc(NC(=O)[C@H]2C[C@H]2F)c2ncn(C)c2c1)c1ccc(C#N)nc1F	100 to 500 nM
Cc1cc(C#N)nc(F)c1N(C)c1cc(NC(=O)[C@H]2C[C@H]2F)c2ncn(C)c2c1	50 to 100 nM

Memo: "Cc1cnc(C#N)c(F)c1N(C)c1cc(NC(=O)[C@H]2C[C@H]2F)c2ncn(C)c2c1" , reported IC50: 100 to 500 nM

// IC50 lookup, compound = "CCc1cc(C#N)ncc1N(C)c1cc(NC(=O)[C@H]2C[C@H]2F)c2ncn(C)c2c1" , result: 100 to 500 nM

* * *

Biological target: Recombinant human JAK3 catalytic domain (Homo sapiens)
Construct: Recombinant human JAK3 catalytic domain (amino acids 781-1124; catalog number PV3855); purchased Invitrogen PV3855
Assay: JAK3 inhibition assay
Assay type: biochemical
Details: Illustrative Compounds of the invention (Table IX)
measurement type: IC50

Look over these answered cases.
CN(c1cc(NC(=O)[C@H]2C[C@H]2F)c2ncn(C)c2c1)c1c(F)cc(C#N)cc1Cl	100 to 500 nM
CCc1cc(S(C)(=O)=O)ncc1N(C)c1cc(NC(=O)C2CC2)c2ncn(C)c2c1	100 to 500 nM
Cc1cc(C#N)ncc1Oc1cc(NC(=O)NC(C)C)c2ncn(C)c2c1	> 500 nM

Pending molecule:
Recombinant human JAK3 catalytic domain (Homo sapiens) IC50 of "CCc1cc(C#N)ncc1N(C)c1cc(NC(=O)OC)c2ncn(C)c2c1" is 100 to 500 nM

* * *

Target: Recombinant human TYK2 catalytic domain (Homo sapiens)
Construct: Recombinant human TYK2 catalytic domain (amino acids 871-1187; catalog number 08-147); purchased Carna biosciences 08-147
Sequence (P29597 871-1187): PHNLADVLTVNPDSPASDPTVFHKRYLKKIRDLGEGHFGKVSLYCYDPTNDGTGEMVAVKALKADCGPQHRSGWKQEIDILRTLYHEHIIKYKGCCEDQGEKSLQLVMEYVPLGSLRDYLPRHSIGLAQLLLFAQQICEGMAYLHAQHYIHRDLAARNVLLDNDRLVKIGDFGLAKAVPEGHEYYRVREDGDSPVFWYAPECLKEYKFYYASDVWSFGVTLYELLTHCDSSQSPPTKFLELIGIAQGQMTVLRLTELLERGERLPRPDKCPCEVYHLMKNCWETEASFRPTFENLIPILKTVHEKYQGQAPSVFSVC
Assay: TYK2 inhibition assay
Type: biochemical
Conditions: Illustrative Compounds of the invention (Table XI)
pIC50: −log10 of the molar value.
Recorded pIC50 values for a group of molecules are listed next.

Cc1cc(C#N)ncc1N(C)c1cc(NC(=O)[C@H]2C[C@H]2F)c2ncn(C)c2c1	7.30 to 10.00

Record "Cc1cc(C#N)ncc1Oc1cc(NC(=O)NC(C)C)c2ncn(C)c2c1" . Reported pIC50: 6.30 to 7.00

Reported pIC50 for "Cc1cc(S(C)(=O)=O)cc(F)c1N(C)c1cc(NC(=O)C2CC2)c2ncn(C)c2c1" was 7.30 to 10.00

For reference, reported pIC50 for "Cc1cc(C#N)ncc1Oc1cc(NC(=O)[C@H]2C[C@H]2F)c2ncn(C)c2c1" stands at 7.30 to 10.00

* * *

Target: Recombinant human JAK2 catalytic domain (Homo sapiens, UniProt O60674)
Construct: Recombinant human JAK2 catalytic domain (amino acids 808-1132; catalog number PV4210); GST; purchased Invitrogen PV4210
Sequence (O60674 808-1132): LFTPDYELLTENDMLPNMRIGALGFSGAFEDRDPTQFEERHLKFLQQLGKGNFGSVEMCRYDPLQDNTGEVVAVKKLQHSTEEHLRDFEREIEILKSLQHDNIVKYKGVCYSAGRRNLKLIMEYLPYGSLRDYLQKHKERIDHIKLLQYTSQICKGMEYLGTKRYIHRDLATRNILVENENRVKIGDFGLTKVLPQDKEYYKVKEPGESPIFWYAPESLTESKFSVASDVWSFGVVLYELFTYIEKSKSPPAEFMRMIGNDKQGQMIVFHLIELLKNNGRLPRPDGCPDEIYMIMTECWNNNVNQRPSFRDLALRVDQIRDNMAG
Assay: JAK2 inhibition assay (polyGT substrate / Ulight-JAK1 peptide assay)
Type: biochemical
Details: Illustrative Compounds of the invention (Table VII)
Overview of recorded IC50 for various compounds

Field: example entries. Status: answers known.
Cc1cc(S(C)(=O)=O)cc(F)c1N(C)c1cc(NC(=O)C2CC2)c2ncn(C)c2c1	0.1 to 50 nM
CCc1cc(C#N)ncc1N(C)c1cc(NC(=O)[C@H]2C[C@H]2F)c2ncn(C)c2c1	0.1 to 50 nM
Cc1cc(C#N)ncc1Oc1cc(NC(=O)[C@H]2C[C@H]2F)c2ncn(C)c2c1	50 to 100 nM

Next compound, IC50 to be filled in.
Entry under test: "CCc1cc(C(N)=O)ncc1N(C)c1cc(NC(=O)[C@H]2C[C@H]2F)c2ncn(C)c2c1" . Its IC50 was 0.1 to 50 nM

* * *

Molecular target: Recombinant human JAK2 catalytic domain (Homo sapiens)
Construct: Recombinant human JAK2 catalytic domain (amino acids 808-1132; catalog number PV4210); GST; purchased Invitrogen PV4210
Test: JAK2 inhibition assay (polyGT substrate / Ulight-JAK1 peptide assay)
Format: biochemical
Conditions: Illustrative Compounds of the invention (Table VII)
pIC50: −log10 of the molar value.
measurement type: pIC50

Reference set, count: 8
Cc1cc(C#N)ncc1Oc1cc(NC(=O)NC(C)C)c2ncn(C)c2c1 [Cpd 38]	6.30 to 7.00
CCc1cc(C(N)=O)ncc1N(C)c1cc(NC(=O)C2CC2)c2ncn(C)c2c1 [Cpd 24]	7.30 to 10.00
Cc1cc(C#N)nc(F)c1N(C)c1cc(NC(=O)[C@H]2C[C@H]2F)c2ncn(C)c2c1 [Cpd 21]	7.30 to 10.00
Cc1cc(C#N)ncc1Oc1cc(N)c2ncn(C)c2c1 [Cpd 28]	< 6.30
CCc1cc(S(C)(=O)=O)ncc1N(C)c1cc(NC(=O)C2CC2)c2ncn(C)c2c1 [Cpd 18]	7.30 to 10.00
CCS(=O)(=O)c1ccc(N(C)c2cc(NC(=O)[C@H]3C[C@H]3F)c3ncn(C)c3c2)c(C)c1 [Cpd 27]	6.30 to 7.00
Cc1cc(C#N)ncc1Oc1cc(NC(=O)C2CC2)c2ncn(C)c2c1 [Cpd 23]	7.00 to 7.30
CN(c1cc(NC(=O)[C@H]2C[C@H]2F)c2ncn(C)c2c1)c1ccc(F)nc1F [Cpd 13]	6.30 to 7.00

Here's the next entry for you.
Briefly, pIC50 measured for Cc1cc(C#N)ncc1N(C)c1cc(NC(=O)[C@H]2C[C@H]2F)c2ncn(C)c2c1 [Cpd 9] : 7.30 to 10.00

* * *

Biological target: Recombinant human JAK1 catalytic domain (Homo sapiens, UniProt P23458)
Construct: Recombinant human JAK1 (catalytic domain, amino acids 866-1154; catalog number PV4774); purchased Invitrogen PV4774
Sequence (P23458 866-1154): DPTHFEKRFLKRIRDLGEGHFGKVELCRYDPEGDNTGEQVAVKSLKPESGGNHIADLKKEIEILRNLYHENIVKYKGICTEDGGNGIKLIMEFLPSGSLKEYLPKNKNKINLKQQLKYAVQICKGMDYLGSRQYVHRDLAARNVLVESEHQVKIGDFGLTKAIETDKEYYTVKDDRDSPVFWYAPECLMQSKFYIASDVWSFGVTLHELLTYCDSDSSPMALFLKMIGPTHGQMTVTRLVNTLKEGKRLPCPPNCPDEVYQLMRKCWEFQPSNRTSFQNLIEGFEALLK
Assay: JAK1 inhibition assay (polyGT substrate / Ulight-JAK1 peptide assay)
Type: biochemical
Conditions: Illustrative Compounds of the invention (Table V)
measurement type: IC50

Cc1cc(C#N)ncc1Oc1cc(NC(=O)N2CCOCC2)c2ncn(C)c2c1 [Cpd 37]	> 500 nM
CCc1cc(C(N)=O)ncc1N(C)c1cc(NC(=O)[C@H]2C[C@H]2F)c2ncn(C)c2c1 [Cpd 25]	0.1 to 50 nM
Cc1cc(F)ncc1N(C)c1cc(NC(=O)[C@H]2C[C@H]2F)c2ncn(C)c2c1 [Cpd 12]	0.1 to 50 nM
Cc1cc(C#N)ncc1Oc1cc(N)c2ncn(C)c2c1 [Cpd 28]	50 to 100 nM

Readout IC50 for CN(c1cc(NC(=O)[C@H]2C[C@H]2F)c2ncn(C)c2c1)c1c(F)cc(C#N)cc1Cl [Cpd 11] , test system Recombinant human JAK1 catalytic domain (Homo sapiens, UniProt P23458), was 0.1 to 50 nM

Observed IC50 on Recombinant human JAK1 catalytic domain (Homo sapiens, UniProt P23458), entry CCc1cc(C#N)ncc1N(C)c1cc(NC(=O)OC)c2ncn(C)c2c1 [Cpd 4] , equals 0.1 to 50 nM

# lookup: CN(c1cc(NC(=O)[C@H]2C[C@H]2F)c2ncn(C)c2c1)c1ccc(C#N)nc1F [Cpd 14] on Recombinant human JAK1 catalytic domain (Homo sapiens, UniProt P23458), IC50 = 0.1 to 50 nM

Short answer on Recombinant human JAK1 catalytic domain (Homo sapiens, UniProt P23458) for Cc1cc(C#N)ncc1Oc1cc(NC(=O)N2CC(O)C2)c2ncn(C)c2c1 [Cpd 36] , IC50: > 500 nM

Measured on Recombinant human JAK1 catalytic domain (Homo sapiens, UniProt P23458), Cc1cc(C#N)ncc1Oc1cc(NC(=O)NC(C)C)c2ncn(C)c2c1 [Cpd 38] has a documented IC50 of 0.1 to 50 nM

Lab note: compound CCS(=O)(=O)c1ccc(N(C)c2cc(NC(=O)[C@H]3C[C@H]3F)c3ncn(C)c3c2)c(C)c1 [Cpd 27] tested on Recombinant human JAK1 catalytic domain (Homo sapiens, UniProt P23458); recorded IC50 was 0.1 to 50 nM

# credit: patent US10179771B2
